tested on: 171881-019-R-J1-PDC complex spheroid growth, % test/control; experiment: Anticancer human tumor 171881-019-R-J1-PDC patient-derived invasive breast carcinoma cell line growth inhibition [Asc]; settings: second compound 1 µM; first compound 0.316 µM; stronger effect = lower value
measured.property: viability, T/C (%)

[
  {
    "compound": "O=C(c1cc(Cc2n[nH]c(=O)c3ccccc23)ccc1F)N1CCN(C(=O)C2CC2)CC1 + CNC(C)C(=O)NC1CN(S(=O)(=O)c2cccc(S(=O)(=O)N3CCC4CCC(C(=O)NC(c5ccccc5)c5ccccc5)N4C(=O)C(NC(=O)C(C)NC)C3)c2)CCC2CCC(C(=O)NC(c3ccccc3)c3ccccc3)N2C1=O",
    "assay.result": 89.4
  },
  {
    "compound": "C=C(F)C(=O)N1CCN(c2nc(OCC3CCCN3C)nc3c2CCN(c2cccc4cccc(Cl)c24)C3)CC1CC#N (stereo not drawn) + CNC(C)C(=O)NC1CN(S(=O)(=O)c2cccc(S(=O)(=O)N3CCC4CCC(C(=O)NC(c5ccccc5)c5ccccc5)N4C(=O)C(NC(=O)C(C)NC)C3)c2)CCC2CCC(C(=O)NC(c3ccccc3)c3ccccc3)N2C1=O",
    "assay.result": 86.5
  },
  {
    "compound": "O=C(c1ccc(F)c(F)c1Nc1ccc(I)cc1F)N1CC(O)([C@@H]2CCCCN2)C1 + Cc1c(S(C)(=O)=O)c(-c2cc(F)cc(N3CCN(c4ccc(NS(=O)(=O)c5ccc(NC(CCN6CCC(C(=O)OCCCP(=O)(O)O)CC6)CSc6ccccc6)c(S(=O)(=O)C(F)(F)F)c5)cc4)CC3)c2)c(-c2ccc(Cl)cc2)n1C(C)C",
    "assay.result": 13.7
  }
]

###

test system: 171881-019-R-J1-PDC complex spheroid growth, % test/control; test: Anticancer human tumor 171881-019-R-J1-PDC cell line growth inhibition [Asc]; settings: second compound 0.316 µM; first compound 1 µM; active = viability on the fitted dose curve at most 10% of control; inactive = the rest;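 also: spheroids exposed to compounds for 7 days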
Labels: 1 (yes) (active), 0 (no) (inactive)

[
  {
    "compound": "O=C(c1ccc(F)c(F)c1Nc1ccc(I)cc1F)N1CC(O)([C@@H]2CCCCN2)C1 + CNC(C)C(=O)NC1CN(S(=O)(=O)c2cccc(S(=O)(=O)N3CCC4CCC(C(=O)NC(c5ccccc5)c5ccccc5)N4C(=O)C(NC(=O)C(C)NC)C3)c2)CCC2CCC(C(=O)NC(c3ccccc3)c3ccccc3)N2C1=O",
    "group.label": "0 (no)"
  },
  {
    "compound": "COc1c(OCCCN2CCOCC2)ccc2c3n(c(=NC(=O)c4cnc(N)nc4)nc12)CCN3 + CNC(C)C(=O)NC1CN(S(=O)(=O)c2cccc(S(=O)(=O)N3CCC4CCC(C(=O)NC(c5ccccc5)c5ccccc5)N4C(=O)C(NC(=O)C(C)NC)C3)c2)CCC2CCC(C(=O)NC(c3ccccc3)c3ccccc3)N2C1=O",
    "group.label": "1 (yes)"
  },
  {
    "compound": "CNC(C)C(=O)NC1CN(S(=O)(=O)c2cccc(S(=O)(=O)N3CCC4CCC(C(=O)NC(c5ccccc5)c5ccccc5)N4C(=O)C(NC(=O)C(C)NC)C3)c2)CCC2CCC(C(=O)NC(c3ccccc3)c3ccccc3)N2C1=O (configuration not stated) + Cc1c(S(C)(=O)=O)c(-c2cc(F)cc(N3CCN(c4ccc(NS(=O)(=O)c5ccc(NC(CCN6CCC(C(=O)OCCCP(=O)(O)O)CC6)CSc6ccccc6)c(S(=O)(=O)C(F)(F)F)c5)cc4)CC3)c2)c(-c2ccc(Cl)cc2)n1C(C)C",
    "group.label": "0 (no)"
  },
  {
    "compound": "O=C(c1ccc(F)c(F)c1Nc1ccc(I)cc1F)N1CC(O)([C@@H]2CCCCN2)C1 + Cc1c(S(C)(=O)=O)c(-c2cc(F)cc(N3CCN(c4ccc(NS(=O)(=O)c5ccc(NC(CCN6CCC(C(=O)OCCCP(=O)(O)O)CC6)CSc6ccccc6)c(S(=O)(=O)C(F)(F)F)c5)cc4)CC3)c2)c(-c2ccc(Cl)cc2)n1C(C)C",
    "group.label": "0 (no)"
  },
  {
    "compound": "COc1c(OCCCN2CCOCC2)ccc2c3n(c(=NC(=O)c4cnc(N)nc4)nc12)CCN3 + Cc1c(S(C)(=O)=O)c(-c2cc(F)cc(N3CCN(c4ccc(NS(=O)(=O)c5ccc(NC(CCN6CCC(C(=O)OCCCP(=O)(O)O)CC6)CSc6ccccc6)c(S(=O)(=O)C(F)(F)F)c5)cc4)CC3)c2)c(-c2ccc(Cl)cc2)n1C(C)C",
    "group.label": "1 (yes)"
  },
  {
    "compound": "C#Cc1c(F)ccc2cc(O)cc(-c3ncc4c(N5CC6CCC(C5)N6)nc(OCC56CCCN5CC(F)C6)nc4c3F)c12 (configuration not stated) + CNC(C)C(=O)NC1CN(S(=O)(=O)c2cccc(S(=O)(=O)N3CCC4CCC(C(=O)NC(c5ccccc5)c5ccccc5)N4C(=O)C(NC(=O)C(C)NC)C3)c2)CCC2CCC(C(=O)NC(c3ccccc3)c3ccccc3)N2C1=O",
    "group.label": "0 (no)"
  },
  {
    "compound": "O=C(c1cc(Cc2n[nH]c(=O)c3ccccc23)ccc1F)N1CCN(C(=O)C2CC2)CC1 + CNC(C)C(=O)NC1CN(S(=O)(=O)c2cccc(S(=O)(=O)N3CCC4CCC(C(=O)NC(c5ccccc5)c5ccccc5)N4C(=O)C(NC(=O)C(C)NC)C3)c2)CCC2CCC(C(=O)NC(c3ccccc3)c3ccccc3)N2C1=O",
    "group.label": "0 (no)"
  },
  {
    "compound": "C=C(F)C(=O)N1CCN(c2nc(OCC3CCCN3C)nc3c2CCN(c2cccc4cccc(Cl)c24)C3)CC1CC#N (configuration not stated) + CNC(C)C(=O)NC1CN(S(=O)(=O)c2cccc(S(=O)(=O)N3CCC4CCC(C(=O)NC(c5ccccc5)c5ccccc5)N4C(=O)C(NC(=O)C(C)NC)C3)c2)CCC2CCC(C(=O)NC(c3ccccc3)c3ccccc3)N2C1=O",
    "group.label": "0 (no)"
  },
  {
    "compound": "CCN1CCN(Cc2ccc(Nc3ncc(F)c(-c4cc(F)c5nc(C)n(C(C)C)c5c4)n3)nc2)CC1 + Cc1c(S(C)(=O)=O)c(-c2cc(F)cc(N3CCN(c4ccc(NS(=O)(=O)c5ccc(NC(CCN6CCC(C(=O)OCCCP(=O)(O)O)CC6)CSc6ccccc6)c(S(=O)(=O)C(F)(F)F)c5)cc4)CC3)c2)c(-c2ccc(Cl)cc2)n1C(C)C",
    "group.label": "0 (no)"
  },
  {
    "compound": "C=CC(=O)N1CCN(c2nc(=O)n(-c3c(C)ccnc3C(C)C)c3nc(-c4c(O)cccc4F)c(F)cc23)C(C)C1 (configuration not stated) + CNC(C)C(=O)NC1CN(S(=O)(=O)c2cccc(S(=O)(=O)N3CCC4CCC(C(=O)NC(c5ccccc5)c5ccccc5)N4C(=O)C(NC(=O)C(C)NC)C3)c2)CCC2CCC(C(=O)NC(c3ccccc3)c3ccccc3)N2C1=O",
    "group.label": "0 (no)"
  },
  {
    "compound": "C=C(F)C(=O)N1CCN(c2nc(OCC3CCCN3C)nc3c2CCN(c2cccc4cccc(Cl)c24)C3)CC1CC#N (configuration not stated) + Cc1c(S(C)(=O)=O)c(-c2cc(F)cc(N3CCN(c4ccc(NS(=O)(=O)c5ccc(NC(CCN6CCC(C(=O)OCCCP(=O)(O)O)CC6)CSc6ccccc6)c(S(=O)(=O)C(F)(F)F)c5)cc4)CC3)c2)c(-c2ccc(Cl)cc2)n1C(C)C",
    "group.label": "0 (no)"
  },
  {
    "compound": "CCN1CCN(Cc2ccc(Nc3ncc(F)c(-c4cc(F)c5nc(C)n(C(C)C)c5c4)n3)nc2)CC1 + CNC(C)C(=O)NC1CN(S(=O)(=O)c2cccc(S(=O)(=O)N3CCC4CCC(C(=O)NC(c5ccccc5)c5ccccc5)N4C(=O)C(NC(=O)C(C)NC)C3)c2)CCC2CCC(C(=O)NC(c3ccccc3)c3ccccc3)N2C1=O",
    "group.label": "0 (no)"
  }
]

###

tested on: 171881-019-R-J1-PDC complex spheroid growth, % test/control; experiment: Anticancer human tumor 171881-019-R-J1-PDC cell line growth inhibition [Asc]; conditions: second compound 3.16 µM; first compound 1 µM; active = viability on the fitted dose curve at most 10% of control; inactive = the rest;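 also: spheroids exposed to compounds for 7 days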
Labels: yes (1) = active, no (0) = inactive

[
  {
    "molecule": "C=C(F)C(=O)N1CCN(c2nc(OCC3CCCN3C)nc3c2CCN(c2cccc4cccc(Cl)c24)C3)CC1CC#N (centres undefined) + Cc1c(S(C)(=O)=O)c(-c2cc(F)cc(N3CCN(c4ccc(NS(=O)(=O)c5ccc(NC(CCN6CCC(C(=O)OCCCP(=O)(O)O)CC6)CSc6ccccc6)c(S(=O)(=O)C(F)(F)F)c5)cc4)CC3)c2)c(-c2ccc(Cl)cc2)n1C(C)C",
    "target.under.test": "171881-019-R-J1-PDC complex spheroid growth, % test/control",
    "group.label": "no (0)"
  },
  {
    "molecule": "O=C(c1ccc(F)c(F)c1Nc1ccc(I)cc1F)N1CC(O)([C@@H]2CCCCN2)C1 + Cc1c(S(C)(=O)=O)c(-c2cc(F)cc(N3CCN(c4ccc(NS(=O)(=O)c5ccc(NC(CCN6CCC(C(=O)OCCCP(=O)(O)O)CC6)CSc6ccccc6)c(S(=O)(=O)C(F)(F)F)c5)cc4)CC3)c2)c(-c2ccc(Cl)cc2)n1C(C)C",
    "target.under.test": "171881-019-R-J1-PDC complex spheroid growth, % test/control",
    "group.label": "yes (1)"
  },
  {
    "molecule": "CNC(C)C(=O)NC1CN(S(=O)(=O)c2cccc(S(=O)(=O)N3CCC4CCC(C(=O)NC(c5ccccc5)c5ccccc5)N4C(=O)C(NC(=O)C(C)NC)C3)c2)CCC2CCC(C(=O)NC(c3ccccc3)c3ccccc3)N2C1=O (centres undefined) + Cc1c(S(C)(=O)=O)c(-c2cc(F)cc(N3CCN(c4ccc(NS(=O)(=O)c5ccc(NC(CCN6CCC(C(=O)OCCCP(=O)(O)O)CC6)CSc6ccccc6)c(S(=O)(=O)C(F)(F)F)c5)cc4)CC3)c2)c(-c2ccc(Cl)cc2)n1C(C)C",
    "target.under.test": "171881-019-R-J1-PDC complex spheroid growth, % test/control",
    "group.label": "no (0)"
  },
  {
    "molecule": "C=CC(=O)N1CCN(c2nc(=O)n(-c3c(C)ccnc3C(C)C)c3nc(-c4c(O)cccc4F)c(F)cc23)C(C)C1 (centres undefined) + Cc1c(S(C)(=O)=O)c(-c2cc(F)cc(N3CCN(c4ccc(NS(=O)(=O)c5ccc(NC(CCN6CCC(C(=O)OCCCP(=O)(O)O)CC6)CSc6ccccc6)c(S(=O)(=O)C(F)(F)F)c5)cc4)CC3)c2)c(-c2ccc(Cl)cc2)n1C(C)C",
    "target.under.test": "171881-019-R-J1-PDC complex spheroid growth, % test/control",
    "group.label": "no (0)"
  }
]
